# System: Ruminococcus gnavus DSM 108212
# method.summary: fold change of Tryptamine concentration vs plate DMSO controls (fold change (ratio)); higher = more amine produced, active = hit call of the paper (significant change in both replicates, either direction)
# measurement.parameters: incubation time: 27 h, anaerobic, 37 °C
Where a name gives a salt, the structure may show the parent alone.
// label = YES if fold change of Tryptamine concentration is not less than 1, otherwise NO

Known results for compounds:
NS(=O)(=O)c1cc(C(=O)O)cc(N2CCCC2)c1Oc1ccccc1 [Piretanide] (20 µM)	YES
CC1(C)S[C@@H]2[C@H](NC(=O)[C@H](N)c3ccccc3)C(=O)N2[C@H]1C(=O)O [Ampicillin trihydrate] (20 µM)	NO
Cc1ccnc2c1NC(=O)c1cccnc1N2C1CC1 [Nevirapine] (20 µM)	YES
CCC(C)n1ncn(-c2ccc(N3CCN(c4ccc(OCC5COC(Cn6cncn6)(c6ccc(Cl)cc6Cl)O5)cc4)CC3)cc2)c1=O (stereo not drawn) [Itraconazole] (20 µM)	YES
Cc1ccccc1C(=O)Nc1ccc(C(=O)N2CCCC(O)c3cc(Cl)ccc32)c(C)c1 (stereo not drawn) [Tolvaptan] (20 µM)	NO

Query: hey, is fold change of Tryptamine concentration for this one >= 1? O=S(=O)(O)c1cc(O)ccc1O [Ethamsylate diethylammonium salt] (20 µM)
Result: YES
